ASSAY_SYSTEM: human DLL3 protein expressed on CHO-K1 recombinant cells (human DLL3 extracellular segment fused to EpCAM transmembrane and intracellular regions) (human) (UniProt Q9NYJ7)
Sequence (Q9NYJ7 other isoform, or with tags, fused parts or gaps limits assumed): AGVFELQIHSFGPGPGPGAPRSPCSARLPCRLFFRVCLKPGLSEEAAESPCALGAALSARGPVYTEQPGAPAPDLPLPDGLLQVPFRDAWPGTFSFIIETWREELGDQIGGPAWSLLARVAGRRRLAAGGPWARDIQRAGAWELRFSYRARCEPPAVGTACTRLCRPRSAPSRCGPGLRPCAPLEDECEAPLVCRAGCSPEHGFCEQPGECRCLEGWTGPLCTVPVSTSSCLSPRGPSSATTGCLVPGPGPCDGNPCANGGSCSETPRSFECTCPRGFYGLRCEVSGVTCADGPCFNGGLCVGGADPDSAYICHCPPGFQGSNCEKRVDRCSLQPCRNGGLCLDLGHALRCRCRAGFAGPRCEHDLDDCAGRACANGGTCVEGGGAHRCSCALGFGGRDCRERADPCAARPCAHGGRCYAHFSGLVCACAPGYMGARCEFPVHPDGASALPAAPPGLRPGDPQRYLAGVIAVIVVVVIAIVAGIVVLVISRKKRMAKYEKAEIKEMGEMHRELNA
ASSAY: FACS, CHO-K1 hDLL3 cells, 0.032 nM antibody
Listing: MFI of selected binders
The figure you give is taken to be in MFI; do not add the unit.

INSERT INTO assay_data (binder, recorded_endpoint, result_units, test_result) VALUES
  ('Hab015VL4VH5a-hFc (scFv, part only; not given: VL-VH linker and human IgG1 Fc, V domains shown, not shown: another chain or arm of the molecule; a dimerising Fc or GST; small tags and cut ends) VL: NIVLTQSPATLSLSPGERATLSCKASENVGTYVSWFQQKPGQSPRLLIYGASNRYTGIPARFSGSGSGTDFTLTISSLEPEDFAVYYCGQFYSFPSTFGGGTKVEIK VH: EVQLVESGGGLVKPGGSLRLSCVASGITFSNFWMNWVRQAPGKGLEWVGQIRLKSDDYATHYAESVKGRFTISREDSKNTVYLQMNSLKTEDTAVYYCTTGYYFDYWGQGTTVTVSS', 'MFI', 'MFI', 283);

Now consider the entry below.
What MFI value was documented for this binder, Hab009VL3aVH1-hFc (Fc fusion, part only; not given: Linker and human IgG1 Fc, not shown: a dimerising Fc or GST) chain, part: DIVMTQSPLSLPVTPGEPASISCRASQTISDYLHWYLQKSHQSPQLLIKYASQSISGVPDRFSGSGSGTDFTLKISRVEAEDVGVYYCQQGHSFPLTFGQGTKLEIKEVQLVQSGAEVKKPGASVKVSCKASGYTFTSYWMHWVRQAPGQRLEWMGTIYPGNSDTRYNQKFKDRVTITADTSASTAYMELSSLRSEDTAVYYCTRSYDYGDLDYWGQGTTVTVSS ?
1500

The origin of these recorded values is patent EP4786492A1.
